Tested on: MDA-MB-468 cell line
Assay: Inhibition of proliferation of MDA-MB-468 cancer cells (Cell Titer-Glo)
Format: cell-based
Conditions: Homo sapiens, MDA-MB-468, 72 hours
Procedure: To evaluate an inhibitory effect on the proliferation of cancer cells, each of an MDA-MB-231 cell line (Korean Cell Line Bank #30026) and an MDA-MB-468 cell line as triple-negative breast cancer cell lines, and SHP-77 (ATCC #CRL-2195) as a small-cell lung cancer cell line was cultured in DMEM (HyClone #SH30243) or an RPMI medium (HyClone #SH3027.01) to analyze a cell growth rate. […] Then, a degree of luminescence was measured using a microplate reader. […]

[
  {
    "COMPOUND_STRUCTURE_STRING": "N#Cc1c[nH]c2nc(Nc3ccc(C(=O)N4CCOCC4)c4c3OCC4)nc(NC3CCCC3)c12",
    "GI50": "< 50 nM"
  },
  {
    "COMPOUND_STRUCTURE_STRING": "N#Cc1c[nH]c2nc(Nc3ccc(C(=O)N4CCN(C5CC5)CC4)c4c3OCCO4)nc(NC3CCCCC3)c12",
    "GI50": "51 to 100 nM"
  },
  {
    "COMPOUND_STRUCTURE_STRING": "O=C(c1ccc(Nc2nc(NC3CCCCC3)c3cc[nH]c3n2)c2c1CCO2)N1CCC(N2CCOCC2)CC1",
    "GI50": "51 to 100 nM"
  },
  {
    "COMPOUND_STRUCTURE_STRING": "O=C(c1ccc(Nc2nc(C3CC3)c3c(C(F)(F)F)c[nH]c3n2)c2c1CCO2)N1CC[C@H](N2CCOCC2)C1",
    "GI50": "301 to 1000 nM"
  },
  {
    "COMPOUND_STRUCTURE_STRING": "N#Cc1c[nH]c2nc(Nc3ccc(C(=O)N4CCOCC4)c4c3OCCO4)nc(NCC3CCCC3)c12",
    "GI50": "51 to 100 nM"
  },
  {
    "COMPOUND_STRUCTURE_STRING": "N#Cc1c[nH]c2nc(Nc3ccc(C(=O)N4CCC(N5CCOCC5)CC4)c4c3OCCO4)nc(C3CC3)c12",
    "GI50": "301 to 1000 nM"
  },
  {
    "COMPOUND_STRUCTURE_STRING": "COc1cc(S(=O)(=O)N2CCOCC2)ccc1Nc1nc(N[C@H]2CCOC2)c2c(C#N)c[nH]c2n1",
    "GI50": "101 to 300 nM"
  },
  {
    "COMPOUND_STRUCTURE_STRING": "CN1CCC(NC(=O)c2ccc(Nc3nc(NC4CCCCC4)c4c(C#N)c[nH]c4n3)c3c2OCCO3)CC1",
    "GI50": "51 to 100 nM"
  },
  {
    "COMPOUND_STRUCTURE_STRING": "COc1cc(S(=O)(=O)N2CCOCC2)ccc1Nc1nc(NC2CCC2)c2c(C(F)(F)F)c[nH]c2n1",
    "GI50": "301 to 1000 nM"
  },
  {
    "COMPOUND_STRUCTURE_STRING": "COCCNc1nc(Nc2ccc(C(=O)N3CCC(N4CCOCC4)CC3)c3c2OCC3)nc2[nH]cc(C(F)(F)F)c12",
    "GI50": "301 to 1000 nM"
  },
  {
    "COMPOUND_STRUCTURE_STRING": "O=C(c1ccc(Nc2nc(NC3CCCCC3)c3cc[nH]c3n2)c2c1CCO2)N1CCOCC1",
    "GI50": "< 50 nM"
  },
  {
    "COMPOUND_STRUCTURE_STRING": "CNc1nc(Nc2ccc(C(=O)N3CCC(N4CCOCC4)CC3)c3c2OCC3)nc2[nH]cc(C(F)(F)F)c12",
    "GI50": "301 to 1000 nM"
  },
  {
    "COMPOUND_STRUCTURE_STRING": "CC[C@H](C)Nc1nc(Nc2ccc(S(=O)(=O)N3CCC(N4CCOCC4)CC3)cc2OC)nc2[nH]cc(C(F)(F)F)c12",
    "GI50": "301 to 1000 nM"
  },
  {
    "COMPOUND_STRUCTURE_STRING": "CCNc1nc(Nc2ccc(S(=O)(=O)N3CCC(N4CCOCC4)CC3)cc2OC)nc2[nH]cc(C#N)c12",
    "GI50": "< 50 nM"
  },
  {
    "COMPOUND_STRUCTURE_STRING": "COc1cc(S(=O)(=O)N2CCOCC2)ccc1Nc1nc(NC2CCCCC2)c2c(C#N)c[nH]c2n1",
    "GI50": "101 to 300 nM"
  },
  {
    "COMPOUND_STRUCTURE_STRING": "COc1cc(S(=O)(=O)N2CCOCC2)ccc1Nc1nc(C2CC2)c2c(C(F)(F)F)c[nH]c2n1",
    "GI50": "301 to 1000 nM"
  },
  {
    "COMPOUND_STRUCTURE_STRING": "CCCNc1nc(Nc2ccc(S(=O)(=O)N3CCOCC3)cc2OC)nc2[nH]cc(C(F)(F)F)c12",
    "GI50": "301 to 1000 nM"
  }
]
